Origin of measurements: ChEMBL document CHEMBL4190307

# Assayed System: Amyloid-beta precursor protein (Homo sapiens) (UniProt P05067)
# Sequence (P05067 whole entry): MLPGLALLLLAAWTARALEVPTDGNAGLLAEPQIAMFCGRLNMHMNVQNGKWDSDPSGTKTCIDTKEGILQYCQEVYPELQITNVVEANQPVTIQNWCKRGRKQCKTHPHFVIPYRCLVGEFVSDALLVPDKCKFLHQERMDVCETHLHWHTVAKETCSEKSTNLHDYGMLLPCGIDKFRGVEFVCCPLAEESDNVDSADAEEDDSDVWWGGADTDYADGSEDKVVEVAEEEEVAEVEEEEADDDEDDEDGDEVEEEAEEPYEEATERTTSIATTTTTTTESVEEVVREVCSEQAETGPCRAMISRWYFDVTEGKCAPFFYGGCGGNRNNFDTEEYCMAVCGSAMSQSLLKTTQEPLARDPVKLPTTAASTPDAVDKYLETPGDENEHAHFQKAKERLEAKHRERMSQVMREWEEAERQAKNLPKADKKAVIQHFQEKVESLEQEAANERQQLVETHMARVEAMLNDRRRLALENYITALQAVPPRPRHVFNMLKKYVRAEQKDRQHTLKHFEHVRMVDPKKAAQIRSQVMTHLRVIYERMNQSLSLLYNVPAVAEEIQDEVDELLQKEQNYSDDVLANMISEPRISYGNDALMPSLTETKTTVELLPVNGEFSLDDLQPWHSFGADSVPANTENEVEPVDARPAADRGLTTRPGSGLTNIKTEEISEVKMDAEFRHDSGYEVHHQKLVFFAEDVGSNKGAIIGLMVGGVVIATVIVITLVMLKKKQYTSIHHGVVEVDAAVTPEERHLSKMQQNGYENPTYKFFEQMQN
# Experiment Description: Inhibition of self-induced amyloid beta (1 to 42) (unknown origin) aggregation at 20 uM after 46 to 48 hrs by thioflavin T-based fluorescence assay relative to control
Would you mind labelling by inhibition? At or over 50% is True, under is False.

Worked cases, answers included:
- Molecule Smiles: "Cc1cc(=O)oc2cc(OCc3cc[n+](Cc4ccc(Br)cc4)cc3)ccc12.[Br-]"
  Label Class: "True"
- Molecule Smiles: "Cc1cc(=O)oc2cc(OCc3cc[n+](Cc4ccccc4Br)cc3)ccc12.[Br-]"
  Label Class: "True"
- Molecule Smiles: "Cc1cccc(C[n+]2ccc(COc3ccc4c(C)cc(=O)oc4c3)cc2)c1.[Br-]"
  Label Class: "True"
- Molecule Smiles: "Cc1cc(=O)oc2cc(OCc3cc[n+](Cc4cccc([N+](=O)[O-])c4)cc3)ccc12.[Br-]"
  Label Class: "False"
- Molecule Smiles: "Cc1cc(=O)oc2cc(OCc3cc[n+](Cc4ccccc4F)cc3)ccc12.[Br-]"
  Label Class: "True"

Task item: Say whether `Cc1cc(=O)oc2cc(OCc3cc[n+](Cc4ccc([N+](=O)[O-])cc4)cc3)ccc12.[Br-]` shows inhibition of 50% or more.
Reply: False

Task item: Say whether `Cc1cc(=O)oc2cc(OCc3cc[n+](Cc4cccc(Br)c4)cc3)ccc12.[Br-]` shows inhibition of 50% or more.
Reply: True
